- ASSAYED TARGET: HLA-B*83:01
- PROCEDURE SUMMARY: IEDB peptide-MHC binding, purified MHC/competitive/fluorescence; filed as Kd, often an IC50 or EC50 that approximates it; bounds were set here for any values at or beyond the usual limits of such assays
- TEST CONTEXT: source organism: Mycobacterium tuberculosis C
MEASURED QUANTITY: Kd (nM)
Give the quantity in nM, number only.

SEQ TEXT: APRGFRAAF
UNITS OF MEASURE: nM
Kd: 38

Next:
Any idea what its Kd is? The sequence is APRARTAAF
52.6

---

- ASSAYED TARGET: HLA-B*18:01
- PROCEDURE SUMMARY: IEDB peptide-MHC binding, purified MHC/competitive/fluorescence; filed as Kd, often an IC50 or EC50 that approximates it; bounds were set here for any values at or beyond the usual limits of such assays
- TEST CONTEXT: source organism: Entamoeba dispar SAW760
MEASURED QUANTITY: Kd

Any idea what its Kd is? The sequence is KGFFRVFKK
≥ 20 µM

---

- ASSAYED TARGET: HLA-C*05:01
- PROCEDURE SUMMARY: IEDB peptide-MHC binding, purified MHC/direct/fluorescence; filed as Kd, often an IC50 or EC50 that approximates it; bounds were set here for any values at or beyond the usual limits of such assays
- TEST CONTEXT: source organism: Variola virus
MEASURED QUANTITY: Kd
Answer with the figure and its unit, nothing else.

Any idea what its Kd is? The sequence is FVDTMSIYI
2 nM

---

- ASSAYED TARGET: HLA-B*46:01
- PROCEDURE SUMMARY: IEDB peptide-MHC binding, purified MHC/direct/fluorescence; filed as Kd, often an IC50 or EC50 that approximates it; bounds were set here for any values at or beyond the usual limits of such assays
- TEST CONTEXT: source organism: Marburg virus - Musoke, Kenya, 1980
pKd: −log10 of the molar value.
MEASURED QUANTITY: pKd

Checklist item: pKd tested on HLA-B*46:01, entry QVGIFLICK , value?
≤ 4.70

---

- ASSAYED TARGET: HLA-A*68:02
- PROCEDURE SUMMARY: IEDB peptide-MHC binding, purified MHC/competitive/radioactivity; filed as Kd, often an IC50 or EC50 that approximates it; bounds were set here for any values at or beyond the usual limits of such assays
- TEST CONTEXT: source organism: Homo sapiens
MEASURED QUANTITY: pKd
Keep in mind that pKd stands for -log10 of concentration in molar terms.

Please review the following examples before continuing.
SEQ TEXT: SLPLPNFSSL
pKd: 8.92

SEQ TEXT: LLHQSSDKFV
pKd: 5.53

Next:
Any idea what its pKd is? The sequence is ELEQTYHAKL
5.01

---

- ASSAYED TARGET: HLA-A*31:01
- PROCEDURE SUMMARY: IEDB peptide-MHC binding, purified MHC/direct/fluorescence; filed as Kd, often an IC50 or EC50 that approximates it; bounds were set here for any values at or beyond the usual limits of such assays
- TEST CONTEXT: source organism: Orthohantavirus seoulense
pKd: −log10 of the molar value.
MEASURED QUANTITY: pKd

Any idea what its pKd is? The sequence is KPKHLYVSM
≤ 4.70

---

- ASSAYED TARGET: HLA-A*01:01
- PROCEDURE SUMMARY: IEDB peptide-MHC binding, purified MHC/competitive/fluorescence; filed as Kd, often an IC50 or EC50 that approximates it; bounds were set here for any values at or beyond the usual limits of such assays
- TEST CONTEXT: source organism: Salmonella enterica subsp. enterica serovar Typhi
MEASURED QUANTITY: Kd (nM)
Give the quantity in nM, number only.

Checklist item: Kd tested on HLA-A*01:01, entry MVEASGGRY , value?
122

---

Measured Kd accompanies every entry in the list below.
- ASSAYED TARGET: HLA-B*58:01
- PROCEDURE SUMMARY: IEDB peptide-MHC binding, purified MHC/direct/fluorescence; filed as Kd, often an IC50 or EC50 that approximates it; bounds were set here for any values at or beyond the usual limits of such assays
- TEST CONTEXT: source organism: Giardia lamblia ATCC 50803
Give the quantity in µM, number only.

Any idea what its Kd is? The sequence is ITFHNQRDF
0.165

Record: GMLSSLHTL
5.05

Record: ISYTYNDNW
0.0118

---

- ASSAYED TARGET: HLA-B*35:01
- PROCEDURE SUMMARY: IEDB peptide-MHC binding, purified MHC/direct/fluorescence; filed as Kd, often an IC50 or EC50 that approximates it; bounds were set here for any values at or beyond the usual limits of such assays
- TEST CONTEXT: source organism: Escherichia coli
MEASURED QUANTITY: Kd (nM)
Give the quantity in nM, number only.

Checklist item: Kd tested on HLA-B*35:01, entry LAAPCRNAL , value?
25.6

---

- ASSAYED TARGET: HLA-A*69:01
- PROCEDURE SUMMARY: IEDB peptide-MHC binding, purified MHC/direct/fluorescence; filed as Kd, often an IC50 or EC50 that approximates it; bounds were set here for any values at or beyond the usual limits of such assays
- TEST CONTEXT: source organism: Brucella abortus
pKd: −log10 of the molar value.
MEASURED QUANTITY: pKd

Any idea what its pKd is? The sequence is GLAEKPNDY
≤ 4.70

---

- ASSAYED TARGET: HLA-A*31:01
- PROCEDURE SUMMARY: IEDB peptide-MHC binding, purified MHC/competitive/fluorescence; filed as Kd, often an IC50 or EC50 that approximates it; bounds were set here for any values at or beyond the usual limits of such assays
- TEST CONTEXT: source organism: dengue virus type 1
MEASURED QUANTITY: pKd
Keep in mind that pKd stands for -log10 of concentration in molar terms.

Any idea what its pKd is? The sequence is SSMVNGVVR
7.74

---

- ASSAYED TARGET: HLA-A*03:01
- PROCEDURE SUMMARY: IEDB peptide-MHC binding, purified MHC/direct/fluorescence; filed as Kd, often an IC50 or EC50 that approximates it; bounds were set here for any values at or beyond the usual limits of such assays
- TEST CONTEXT: source organism: Coxiella burnetii
MEASURED QUANTITY: Kd

Any idea what its Kd is? The sequence is EEMPLVWDL
≥ 20 µM

---

- ASSAYED TARGET: HLA-A*24:02
- PROCEDURE SUMMARY: IEDB peptide-MHC binding, purified MHC/competitive/radioactivity; filed as Kd, often an IC50 or EC50 that approximates it; bounds were set here for any values at or beyond the usual limits of such assays
- TEST CONTEXT: source organism: Dengue virus 3 Martinique/1243/1999
MEASURED QUANTITY: pKd
Keep in mind that pKd stands for -log10 of concentration in molar terms.

Any idea what its pKd is? The sequence is LFSGVSWVM
6.98

---

- ASSAYED TARGET: HLA-B*27:05
- PROCEDURE SUMMARY: IEDB peptide-MHC binding, purified MHC/direct/fluorescence; filed as Kd, often an IC50 or EC50 that approximates it; bounds were set here for any values at or beyond the usual limits of such assays
- TEST CONTEXT: source organism: Camelpox virus CMS
pKd: −log10 of the molar value.
MEASURED QUANTITY: pKd

Any idea what its pKd is? The sequence is KVFFGPIYY
≤ 4.70

---

- ASSAYED TARGET: HLA-B*53:01
- PROCEDURE SUMMARY: IEDB peptide-MHC binding, purified MHC/competitive/radioactivity; filed as Kd, often an IC50 or EC50 that approximates it; bounds were set here for any values at or beyond the usual limits of such assays
- TEST CONTEXT: source organism: Lymphocytic choriomeningitis virus (strain Armstrong)
MEASURED QUANTITY: Kd (nM)
Give the quantity in nM, number only.

Any idea what its Kd is? The sequence is HPIMYYTKF
14.5

Record: MPEWANFKF
13.5

---

Measured Kd accompanies every entry in the list below.
- ASSAYED TARGET: HLA-B*45:01
- PROCEDURE SUMMARY: IEDB peptide-MHC binding, purified MHC/competitive/radioactivity; filed as Kd, often an IC50 or EC50 that approximates it; bounds were set here for any values at or beyond the usual limits of such assays
- TEST CONTEXT: source organism: Mammarenavirus lassaense

SEQ TEXT: GEPKESTPM
MEASURED QUANTITY: Kd
MEASUREMENT: ≥ 77.7 µM

Next:
Any idea what its Kd is? The sequence is SEGNATPGGY
≥ 70 µM
